system: Serine/threonine-protein kinase SMG1 (Homo sapiens)
assay-notes: Inhibition of human recombinant SMG1 expressed in HEK293 cells using GST-tagged p53 as substrate after 1 hr by DELFIA assay
parameter-measured: IC50 (nM)

See these solved cases before continuing.
[[record]]
record_smiles = "CCN(CC)S(=O)(=O)c1cccc(Nc2nccc(-c3ccnc(-c4ccc(NC(=O)NC)cc4)c3)n2)c1"
parameter_measured = "IC50"
unit = "nM"
obs_value = 0.2

[[record]]
record_smiles = "CN1CCN(c2cc(-c3ccnc(Nc4cccc(S(N)(=O)=O)c4)n3)ccn2)CC1"
parameter_measured = "IC50"
unit = "nM"
obs_value = 310

[[record]]
record_smiles = "NS(=O)(=O)c1cccc(Nc2nccc(-c3ccnc(NCCCO)c3)n2)c1"
parameter_measured = "IC50"
unit = "nM"
obs_value = 22

[[record]]
record_smiles = "CNC(=O)Nc1ccc(-c2cc(-c3ccnc(Nc4cccc(S(=O)(=O)NC)c4)n3)ccn2)cc1"
parameter_measured = "IC50"
unit = "nM"
obs_value = 0.1

[[record]]
record_smiles = "OCCCNc1cc(-c2ccnc(Nc3cccc(Cl)c3)n2)ccn1"
parameter_measured = "IC50"
unit = "nM"
obs_value = 110


[P] COc1cccc(Nc2nccc(-c3ccnc(N4CCOCC4)c3)n2)c1
[Q] CCN(CC)S(=O)(=O)c1cc(Nc2nccc(-c3ccnc(-c4ccc(NC(=O)NC)cc4)c3)n2)ccc1C
[R] NS(=O)(=O)c1cccc(Nc2nccc(-c3ccnc(N4C5CCC4COC5)c3)n2)c1
[S] NS(=O)(=O)c1ccc(Nc2nccc(-c3ccnc(N4CCOCC4)c3)n2)cc1
Sort the 4 compounds by IC50; largest first, smallest last. Kindly provide the labels arranged according to the requested ordering.
P, S, R, Q

[P] CCN(CC)c1cc(-c2ccnc(Nc3cccc(S(N)(=O)=O)c3)n2)ccn1
[Q] Clc1ccc(Nc2nccc(-c3ccnc(N4CCOCC4)c3)n2)cc1
[R] Clc1cccc(Nc2nccc(-c3ccnc(N4CCOCC4)c3)n2)c1
[S] c1ccc(Nc2nccc(-c3ccnc(N4CCOCC4)c3)n2)cc1
rank_up(items): orders items by reported IC50 in ascending numerical order. Kindly provide the labels arranged according to the requested ordering.
P, R, Q, S

---

Reported IC50 for target or system Cyclin-dependent kinase 2 (Homo sapiens, UniProt P24941), by entry.
parameter-measured: IC50 (nM)

See these solved cases before continuing.
[[record]]
record_smiles = "CNC(=O)Nc1ccc(-c2cc(-c3ccnc(Nc4ccc(Cl)c(S(=O)(=O)N(C)C)c4)n3)ccn2)cc1"
parameter_measured = "IC50"
unit = "nM"
obs_value = 520

[[record]]
record_smiles = "NS(=O)(=O)c1cccc(Nc2nccc(-c3ccnc(NCCCO)c3)n2)c1"
parameter_measured = "IC50"
unit = "nM"
obs_value = 6.7

[[record]]
record_smiles = "NS(=O)(=O)c1cccc(Nc2nccc(-c3ccnc(N4CCCCC4)c3)n2)c1"
parameter_measured = "IC50"
unit = "nM"
obs_value = 16

[[record]]
record_smiles = "CCN(CC)S(=O)(=O)c1cc(Nc2nccc(-c3ccnc(-c4ccc(NC(=O)NC)cc4)c3)n2)ccc1Cl"
parameter_measured = "IC50"
unit = "nM"
obs_value = 7100


[A] Cc1cccc(Nc2nccc(-c3ccnc(N4CCOCC4)c3)n2)c1
[B] CNC(=O)Nc1ccc(-c2cc(-c3ccnc(Nc4cccc(S(N)(=O)=O)c4)n3)ccn2)cc1
Which record shows the lower IC50: the first, A , or the second, B ? # respond with the chosen item's label
B

---

pIC50: −log10 of the molar value.
Reported pIC50 for target or system Serine/threonine-protein kinase mTOR (Homo sapiens), by entry.
parameter-measured: pIC50

See these solved cases before continuing.
[[record]]
record_smiles = "NS(=O)(=O)c1cccc(Nc2nccc(-c3ccnc(N4C5CCC4COC5)c3)n2)c1"
obs_value = 5.49

[[record]]
record_smiles = "FC(F)(F)c1cccc(Nc2nccc(-c3ccnc(N4CCOCC4)c3)n2)c1"
obs_value = 5.77

[[record]]
record_smiles = "CNC(=O)Nc1ccc(-c2cc(-c3ccnc(Nc4ccc(C)c(S(N)(=O)=O)c4)n3)ccn2)cc1"
obs_value = 7.80

[[record]]
record_smiles = "CNC(=O)Nc1ccc(-c2cc(-c3ccnc(Nc4cccc(S(N)(=O)=O)c4)n3)ccn2)cc1"
obs_value = 7.74


[1] CCN(CC)c1cc(-c2ccnc(Nc3cccc(S(N)(=O)=O)c3)n2)ccn1
[2] CN1CCN(c2cc(-c3ccnc(Nc4cccc(S(N)(=O)=O)c4)n3)ccn2)CC1
Name the one with the greater pIC50 value, either 1 or 2 as given. # respond with the chosen item's label
1

---

system: Phosphatidylinositol 4,5-bisphosphate 3-kinase catalytic subunit alpha isoform (Homo sapiens)
Sequence (P42336 whole entry, canonical isoform): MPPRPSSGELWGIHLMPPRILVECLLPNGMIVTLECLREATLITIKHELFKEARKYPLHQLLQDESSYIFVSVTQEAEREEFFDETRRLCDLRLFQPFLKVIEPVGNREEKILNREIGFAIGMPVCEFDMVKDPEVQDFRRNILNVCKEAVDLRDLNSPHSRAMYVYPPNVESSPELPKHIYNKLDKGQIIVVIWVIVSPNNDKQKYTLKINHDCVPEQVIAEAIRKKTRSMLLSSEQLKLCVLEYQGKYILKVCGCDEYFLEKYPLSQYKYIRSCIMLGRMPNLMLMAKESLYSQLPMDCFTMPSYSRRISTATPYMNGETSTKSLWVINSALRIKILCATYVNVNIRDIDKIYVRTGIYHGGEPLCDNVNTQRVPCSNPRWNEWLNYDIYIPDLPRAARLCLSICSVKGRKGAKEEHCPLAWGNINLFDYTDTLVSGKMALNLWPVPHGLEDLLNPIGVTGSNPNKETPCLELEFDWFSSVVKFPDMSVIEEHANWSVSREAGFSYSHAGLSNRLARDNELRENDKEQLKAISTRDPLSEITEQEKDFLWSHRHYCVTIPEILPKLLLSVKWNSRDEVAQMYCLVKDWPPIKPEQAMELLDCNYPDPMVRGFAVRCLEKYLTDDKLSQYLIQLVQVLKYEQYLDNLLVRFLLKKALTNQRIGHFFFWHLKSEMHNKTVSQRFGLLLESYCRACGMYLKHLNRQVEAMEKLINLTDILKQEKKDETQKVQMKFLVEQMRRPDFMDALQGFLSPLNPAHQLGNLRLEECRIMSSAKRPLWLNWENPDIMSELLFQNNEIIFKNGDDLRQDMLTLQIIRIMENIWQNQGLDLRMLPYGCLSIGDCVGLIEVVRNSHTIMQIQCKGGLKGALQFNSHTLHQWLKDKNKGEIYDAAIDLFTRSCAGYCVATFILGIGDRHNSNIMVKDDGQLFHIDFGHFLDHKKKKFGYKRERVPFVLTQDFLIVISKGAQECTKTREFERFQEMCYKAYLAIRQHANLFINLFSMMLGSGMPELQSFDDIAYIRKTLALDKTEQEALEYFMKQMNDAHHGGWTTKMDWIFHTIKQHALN
assay-notes: Inhibition of PI3Kalpha using diC8-tagged PIP2 as substrate after 30 to 60 mins by TAMRA-based fluorescence polarization assay
pIC50: −log10 of the molar value.
parameter-measured: pIC50

[I] CNC(=O)Nc1ccc(-c2cc(-c3ccnc(Nc4cccc(S(N)(=O)=O)c4)n3)ccn2)cc1
[II] CCN(CC)S(=O)(=O)c1cc(Nc2nccc(-c3ccnc(-c4ccc(NC(=O)NC)cc4)c3)n2)ccc1C
Which record shows the lower pIC50: the first, I , or the second, II ? # respond with the chosen item's label
II

[I] CNC(=O)Nc1ccc(-c2cc(-c3ccnc(Nc4ccc(C)c(S(=O)(=O)NC)c4)n3)ccn2)cc1
[II] CNC(=O)Nc1ccc(-c2cc(-c3ccnc(Nc4cccc(S(=O)(=O)NC)c4)n3)ccn2)cc1
Name the one with the greater pIC50 value, either I or II as given. # respond with the chosen item's label
I

[1] CCN(CC)S(=O)(=O)c1cccc(Nc2nccc(-c3ccnc(-c4ccc(NC(=O)NC)cc4)c3)n2)c1
[2] CNC(=O)Nc1ccc(-c2cc(-c3ccnc(Nc4ccc(Cl)c(S(=O)(=O)N(C)C)c4)n3)ccn2)cc1
Which record shows the lower pIC50: the first, 1 , or the second, 2 ? # respond with the chosen item's label
1
(1: 7.11, 2: 7.48)

---

system: Serine/threonine-protein kinase SMG1 (Homo sapiens, UniProt Q96Q15)
Sequence (Q96Q15 whole entry): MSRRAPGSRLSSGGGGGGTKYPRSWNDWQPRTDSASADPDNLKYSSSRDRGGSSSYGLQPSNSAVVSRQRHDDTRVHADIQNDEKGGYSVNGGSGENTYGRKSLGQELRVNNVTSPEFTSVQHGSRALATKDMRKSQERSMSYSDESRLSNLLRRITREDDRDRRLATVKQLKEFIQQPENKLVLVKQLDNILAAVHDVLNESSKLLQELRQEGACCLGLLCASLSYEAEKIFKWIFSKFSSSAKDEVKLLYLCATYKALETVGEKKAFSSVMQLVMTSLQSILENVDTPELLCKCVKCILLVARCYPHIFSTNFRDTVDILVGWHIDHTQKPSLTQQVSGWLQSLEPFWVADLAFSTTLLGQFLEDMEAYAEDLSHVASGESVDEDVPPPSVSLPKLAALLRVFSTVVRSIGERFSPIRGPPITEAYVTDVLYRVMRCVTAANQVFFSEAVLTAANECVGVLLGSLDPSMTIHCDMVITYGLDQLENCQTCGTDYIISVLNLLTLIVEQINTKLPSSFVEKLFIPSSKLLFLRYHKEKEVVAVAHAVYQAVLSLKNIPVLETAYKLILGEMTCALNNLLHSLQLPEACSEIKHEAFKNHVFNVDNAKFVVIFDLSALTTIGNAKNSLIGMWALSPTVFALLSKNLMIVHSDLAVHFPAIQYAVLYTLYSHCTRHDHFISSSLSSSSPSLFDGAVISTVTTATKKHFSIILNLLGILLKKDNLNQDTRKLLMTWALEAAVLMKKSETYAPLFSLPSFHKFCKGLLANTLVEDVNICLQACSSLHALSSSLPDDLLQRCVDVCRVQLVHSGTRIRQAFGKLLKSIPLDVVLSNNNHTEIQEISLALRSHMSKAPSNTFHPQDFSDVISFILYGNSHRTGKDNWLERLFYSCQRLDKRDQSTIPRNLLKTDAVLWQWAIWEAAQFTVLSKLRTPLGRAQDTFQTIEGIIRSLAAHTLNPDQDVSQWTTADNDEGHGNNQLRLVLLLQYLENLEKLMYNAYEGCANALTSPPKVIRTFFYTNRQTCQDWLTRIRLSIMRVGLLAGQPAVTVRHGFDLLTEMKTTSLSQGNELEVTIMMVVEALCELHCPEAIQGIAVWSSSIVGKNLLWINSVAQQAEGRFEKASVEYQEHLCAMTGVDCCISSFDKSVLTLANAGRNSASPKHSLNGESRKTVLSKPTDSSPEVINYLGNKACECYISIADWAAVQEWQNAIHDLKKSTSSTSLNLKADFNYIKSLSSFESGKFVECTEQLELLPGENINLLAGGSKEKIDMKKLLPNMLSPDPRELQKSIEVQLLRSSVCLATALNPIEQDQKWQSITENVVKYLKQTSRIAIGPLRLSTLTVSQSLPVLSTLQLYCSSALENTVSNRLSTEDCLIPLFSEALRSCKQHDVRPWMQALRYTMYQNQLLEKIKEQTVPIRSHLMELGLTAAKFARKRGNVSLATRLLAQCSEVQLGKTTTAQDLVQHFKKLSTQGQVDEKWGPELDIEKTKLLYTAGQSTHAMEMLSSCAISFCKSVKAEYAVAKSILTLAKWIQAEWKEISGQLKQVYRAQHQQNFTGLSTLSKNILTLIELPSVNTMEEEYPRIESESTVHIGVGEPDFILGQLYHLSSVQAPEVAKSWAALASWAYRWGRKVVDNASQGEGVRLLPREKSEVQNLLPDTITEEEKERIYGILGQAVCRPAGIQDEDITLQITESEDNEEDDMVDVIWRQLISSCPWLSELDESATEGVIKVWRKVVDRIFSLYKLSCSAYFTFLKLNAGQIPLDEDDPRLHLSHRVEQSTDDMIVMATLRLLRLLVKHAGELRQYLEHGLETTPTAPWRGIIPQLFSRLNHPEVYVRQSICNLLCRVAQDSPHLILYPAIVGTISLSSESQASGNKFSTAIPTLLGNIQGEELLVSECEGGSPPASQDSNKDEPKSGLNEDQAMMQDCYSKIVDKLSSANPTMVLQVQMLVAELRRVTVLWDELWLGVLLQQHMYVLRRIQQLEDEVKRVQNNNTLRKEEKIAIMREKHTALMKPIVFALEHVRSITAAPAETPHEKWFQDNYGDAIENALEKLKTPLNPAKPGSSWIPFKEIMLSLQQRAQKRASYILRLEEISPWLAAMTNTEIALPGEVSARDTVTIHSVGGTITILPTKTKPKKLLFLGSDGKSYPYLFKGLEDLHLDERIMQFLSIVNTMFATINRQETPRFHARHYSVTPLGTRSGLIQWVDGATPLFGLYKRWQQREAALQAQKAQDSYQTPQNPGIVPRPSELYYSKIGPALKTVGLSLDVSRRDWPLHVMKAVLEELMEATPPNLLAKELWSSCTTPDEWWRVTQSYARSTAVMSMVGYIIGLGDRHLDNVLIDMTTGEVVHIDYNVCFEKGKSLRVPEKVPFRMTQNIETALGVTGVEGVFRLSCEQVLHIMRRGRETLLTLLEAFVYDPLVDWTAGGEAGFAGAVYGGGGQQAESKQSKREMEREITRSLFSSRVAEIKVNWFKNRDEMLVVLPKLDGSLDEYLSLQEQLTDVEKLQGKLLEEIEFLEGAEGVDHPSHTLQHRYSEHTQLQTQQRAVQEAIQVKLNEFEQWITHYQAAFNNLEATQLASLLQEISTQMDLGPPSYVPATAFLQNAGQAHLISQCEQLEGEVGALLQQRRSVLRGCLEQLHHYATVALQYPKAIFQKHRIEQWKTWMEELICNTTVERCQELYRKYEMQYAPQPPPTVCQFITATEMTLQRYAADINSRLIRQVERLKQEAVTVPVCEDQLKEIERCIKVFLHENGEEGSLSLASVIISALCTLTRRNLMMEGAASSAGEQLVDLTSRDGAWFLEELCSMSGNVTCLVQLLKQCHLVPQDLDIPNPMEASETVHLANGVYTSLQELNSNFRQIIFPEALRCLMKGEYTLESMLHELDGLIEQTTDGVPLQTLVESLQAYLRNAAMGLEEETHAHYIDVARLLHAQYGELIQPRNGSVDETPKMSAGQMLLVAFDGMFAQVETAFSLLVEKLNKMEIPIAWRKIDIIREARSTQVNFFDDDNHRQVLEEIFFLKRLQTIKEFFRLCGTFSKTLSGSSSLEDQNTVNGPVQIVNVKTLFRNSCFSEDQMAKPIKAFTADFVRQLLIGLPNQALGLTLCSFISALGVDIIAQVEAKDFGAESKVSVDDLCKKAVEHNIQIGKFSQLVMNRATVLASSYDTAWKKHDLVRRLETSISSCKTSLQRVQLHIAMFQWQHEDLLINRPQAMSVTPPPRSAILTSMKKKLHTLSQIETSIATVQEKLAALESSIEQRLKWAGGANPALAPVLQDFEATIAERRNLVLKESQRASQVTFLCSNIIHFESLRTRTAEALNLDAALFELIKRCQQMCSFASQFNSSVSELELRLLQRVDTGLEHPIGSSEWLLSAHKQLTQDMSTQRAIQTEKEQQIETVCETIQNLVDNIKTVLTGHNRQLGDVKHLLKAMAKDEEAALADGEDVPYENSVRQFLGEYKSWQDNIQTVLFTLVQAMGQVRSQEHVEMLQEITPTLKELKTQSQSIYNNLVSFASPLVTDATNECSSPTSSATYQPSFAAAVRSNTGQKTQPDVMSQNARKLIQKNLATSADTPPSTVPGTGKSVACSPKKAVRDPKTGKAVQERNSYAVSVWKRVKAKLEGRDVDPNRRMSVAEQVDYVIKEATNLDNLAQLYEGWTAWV
assay-notes: Inhibition of human recombinant SMG1 expressed in HEK293 cells using GST-tagged p53 as substrate after 1 hr by DELFIA assay
pIC50: −log10 of the molar value.
parameter-measured: pIC50

See these solved cases before continuing.
[[record]]
record_smiles = "NS(=O)(=O)c1cccc(Nc2nccc(-c3ccnc(N4CCOCC4)c3)n2)c1"
parameter_measured = "pIC50"
obs_value = 7.96

[[record]]
record_smiles = "NS(=O)(=O)c1ccc(Nc2nccc(-c3cccc(C(=O)N4CCCCC4)c3)n2)cc1"
parameter_measured = "pIC50"
obs_value = 6.35

[[record]]
record_smiles = "NS(=O)(=O)c1cccc(Nc2nccc(-c3ccnc(N4CCCCC4)c3)n2)c1"
parameter_measured = "pIC50"
obs_value = 8.52


[I] CCN(CC)S(=O)(=O)c1cc(Nc2nccc(-c3ccnc(-c4ccc(NC(=O)NC)cc4)c3)n2)ccc1Cl
[II] N#Cc1cccc(Nc2nccc(-c3ccnc(N4CCOCC4)c3)n2)c1
[III] NS(=O)(=O)c1cccc(Nc2nccc(-c3ccnc(N4CC5CCC(C4)O5)c3)n2)c1
[IV] FC(F)(F)c1cccc(Nc2nccc(-c3ccnc(N4CCOCC4)c3)n2)c1
Sort the 4 compounds by pIC50; largest first, smallest last. Kindly provide the labels arranged according to the requested ordering.
I, III, II, IV

---

Species: Homo sapiens
assay-notes: Selectivity ratio of IC50 for mTOR to IC50 for human recombinant SMG1
parameter-measured: Ratio IC50

[I] NS(=O)(=O)c1cccc(Nc2nccc(-c3ccnc(N4CCOCC4)c3)n2)c1
[II] CCN(CC)c1cc(-c2ccnc(Nc3cccc(S(N)(=O)=O)c3)n2)ccn1
Which record shows the lower Ratio IC50: the first, I , or the second, II ? # respond with the chosen item's label
II
(II: 37, I: 56)

---

Reported IC50 for target or system Serine/threonine-protein kinase mTOR (Homo sapiens), by entry.
parameter-measured: IC50 (nM)

[[record]]
record_smiles = "NS(=O)(=O)c1cccc(Nc2nccc(-c3ccnc(N4CCCCC4)c3)n2)c1"
system = "Serine/threonine-protein kinase mTOR (Homo sapiens)"
unit = "nM"
obs_value = 140

[[record]]
record_smiles = "NS(=O)(=O)c1cccc(Nc2nccc(-c3ccnc(N4CCOCC4)c3)n2)c1"
system = "Serine/threonine-protein kinase mTOR (Homo sapiens)"
unit = "nM"
obs_value = 610


[I] OCCCNc1cc(-c2ccnc(Nc3cccc(Cl)c3)n2)ccn1
[II] CNC(=O)Nc1ccc(-c2cc(-c3ccnc(Nc4ccc(Cl)c(S(=O)(=O)N(C)C)c4)n3)ccn2)cc1
[III] COc1cccc(Nc2nccc(-c3ccnc(N4CCOCC4)c3)n2)c1
Sort the 3 molecules by IC50; largest first, smallest last. Kindly provide the labels arranged according to the requested ordering.
III, I, II

---

System: MDA-MB-468
assay-notes: Cytotoxicity against human MDA-MB-468 cells
Format: functional, cell-based
parameter-measured: IC50 (nM)
Express it in nM; write the number only.

Record CCN(CC)S(=O)(=O)c1cc(Nc2nccc(-c3ccnc(-c4ccc(NC(=O)NC)cc4)c3)n2)ccc1Cl : what is its IC50 with MDA-MB-468?
75
